assay: qHTS assay for measurement of the activity of small molecule inhibitors on Zika virus induced Caspase-3 activity in human iPSC derived neural progenitor cells (hNPCs) (AID 1224857); settings: hNPCs ZIKV-induced caspase-3/7, Caspase-Glo luminescence, 6 h; series mostly up to 45.7 µM; further: % of control where 0% means no effect; nearly all actives have a fitted effect of over 65% in size
Inconclusive results are not listed. Calls of active or inactive are those of the source. The call rests on the fitted dose curve; in most records, active means well fitted inhibition curve with a large enough effect; inconclusive means small, poorly fitted or top-dose-only effect; inactive means no such curve, though single readings can be large or run the other way.
Outcomes you can answer with include only these: active, inactive

Would you please look over these solved cases?
- MOLECULE: "Cc1cn([C@@H]2O[C@H](CO)[C@@H](O)[C@H]2F)c(=O)[nH]c1=O"
  CLASSIFICATION: "inactive"
- MOLECULE: "NC(=NCCCCCCN=C(N)N=C(N)Nc1ccc(Cl)cc1)N=C(N)Nc1ccc(Cl)cc1"
  CLASSIFICATION: "inactive"
- MOLECULE: "NC(=O)Nc1sc(-c2ccc(F)cc2)cc1C(N)=O"
  CLASSIFICATION: "inactive"
- MOLECULE: "Cc1ccc(-n2[nH]c(C)c(N=Nc3cccc(-c4cccc(C(=O)O)c4)c3O)c2=O)cc1C"
  CLASSIFICATION: "inactive"

# next molecule below
Name the outcome recorded for N=c1ccn2c(n1)O[C@H]1[C@@H](O)[C@@H](CO)O[C@H]12 in the assay. inactive

* * *

test: qHTS of pediatric cancer cell lines to identify multiple opportunities for drug repurposing: Primary screen for Rh18 cells (AID 1347102); conditions: Rh18 rhabdomyosarcoma viability, CellTiter-Glo luminescence, 48 h; series mostly up to 46 µM; further: nearly all actives have a fitted effect of over 65% in size
Results filed as inconclusive are left out. The source made the active and inactive calls. Calls come from the whole dose curve; as a rule, active = well fitted cell-killing curve with a large enough effect; inconclusive = small, poorly fitted or top-dose-only effect; inactive = flat fitted curve, though single readings scatter.
Outcomes you can answer with include only these: active, inactive

Name the outcome recorded for C[C@](Cc1c[nH]c2ccccc12)(NC(=O)OC1C2CC3CC(C2)CC1C3)C(=O)NC[C@H](NC(=O)CCC(=O)O)c1ccccc1 (some centres not stated) in the assay. inactive

Name the outcome recorded for O=C(Nc1cccc(Nc2ncc(Br)c(NCCc3cnc[nH]3)n2)c1)N1CCCC1 in the assay. active

Name the outcome recorded for O=C1NC(=O)[C@@H](c2cn3c4c(cccc24)CCC3)[C@H]1c1c[nH]c2ccccc12 in the assay. inactive

Name the outcome recorded for COc1cc(C(=O)NC2CCN(C)CC2)ccc1Nc1ncc2c(n1)N(C1CCCC1)CCC(=O)N2C(C)C in the assay. active

Name the outcome recorded for O=C1c2c(O)cccc2[C@@H]([C@@H]2O[C@H](CO)[C@@H](O)[C@H](O)[C@H]2O)c2cc(CO)cc(O)c21 in the assay. inactive

Name the outcome recorded for O=C(O)C[C@H](O)C[C@H](O)C=Cc1c(C2CC2)nc2ccccc2c1-c1ccc(F)cc1 in the assay. active

Name the outcome recorded for Cc1nc(NC(=O)N2CCC[C@@H]2C(N)=O)sc1-c1ccnc(C(C)(C)C(F)(F)F)c1 in the assay. active

* * *

test: qHTS of pediatric cancer cell lines to identify multiple opportunities for drug repurposing: Confirmatory screen for Saos-2 cells (AID 1347127); settings: Saos-2 osteosarcoma cell viability; series mostly up to 45.9 µM; further: nearly all actives have a fitted effect of over 60% in size
Inconclusive results are not listed. Active and inactive are the calls of the source. The call rests on the fitted dose curve; in most records, active means well fitted cell-killing curve with a large enough effect; inconclusive means small, poorly fitted or top-dose-only effect, or effect the other way; inactive means no such curve, though single readings can be large or run the other way.
Outcomes you can answer with include only these: 1 = active, 0 = inactive

- COMPOUND: "CC(=O)[C@]1(O)Cc2c(O)c3c(c(O)c2[C@@H](O[C@H]2C[C@H](N)[C@@H](O)[C@H](C)O2)C1)C(=O)c1ccccc1C3=O"
  CLASSIFICATION: 0
- COMPOUND: "CCN(CC)Cc1ccc2cc(COC(=O)Nc3ccc(C(=O)NO)cc3)ccc2c1"
  CLASSIFICATION: 0
- COMPOUND: "CNC(=O)Nc1ccc(-c2nc(N3CC4CCC(C3)O4)c3cnn(C4CCC5(CC4)OCCO5)c3n2)cc1"
  CLASSIFICATION: 1
- COMPOUND: "Cc1cnc(Nc2ccc(CN3CCOCC3)cc2)nc1Nc1cccc(S(=O)(=O)NC(C)(C)C)c1"
  CLASSIFICATION: 1
- COMPOUND: "NS(=O)(=O)OC[C@@H]1C[C@@H](n2ccc3c(N[C@H]4CCc5ccccc54)ncnc32)C[C@H]1O"
  CLASSIFICATION: 0
- COMPOUND: "CCCCC(=O)O[C@]1(C(=O)CO)[C@@H](C)C[C@H]2[C@@H]3CCC4=CC(=O)C=C[C@]4(C)[C@@]3(F)[C@@H](O)C[C@@]21C"
  CLASSIFICATION: 0

Name the outcome recorded for O=C1NCCc2[nH]c(-c3ccncc3)cc21 in the assay. 1

Name the outcome recorded for CC[C@@]1([C@@H]2O[C@@H]([C@H]3O[C@@](O)(CO)[C@H](C)C[C@H]3C)C[C@H]2C)CC[C@H]([C@]2(C)CC[C@]3(C[C@H](O)[C@@H](C)[C@@H]([C@@H](C)[C@@H](OC)[C@H](C)C(=O)O)O3)O2)O1 in the assay. 1

Name the outcome recorded for CC(=O)ON=C1C(c2c(O)[nH]c3cc(Br)ccc23)=Nc2ccccc21 in the assay. 1

Name the outcome recorded for CC(C)N1[N]C(=C2C=c3cc(O)ccc3=N2)c2c(N)ncnc21 in the assay. 1

Name the outcome recorded for Cc1cnc(Nc2ccc(N3CCN(C)CC3)cc2)nc1Nc1cccc(S(=O)(=O)NC(C)(C)C)c1 in the assay. 1

Name the outcome recorded for O=C(NCc1ccccc1)[C@H](Cc1ccccc1)NC(=O)[C@@H]1O[C@@H]1C(=O)NCCc1ccc(O)cc1 in the assay. 0

Name the outcome recorded for NC(=O)Nc1cc(-c2ccc(CN3CCOCC3)cc2)sc1C(N)=O in the assay. 1
